Reported growth values for a set of molecules
- Tested on: NCI/ADR-RES ovarian
- measurement_notes: NCI-60 one-dose screen, 48 h (100 = growth as untreated, 0 = no growth, -100 = all killed)
- measurement_conditions: 10 µM unless noted
Compounds without any hit were thinned out: in the full panel of roughly 83,000, 20% have a hit.

{"molecule": "COc1cc(C2C3=C(COC3=O)N(CCO)c3cc4c(cc32)OCO4)cc(OC)c1OC (stereo not given)", "growth / %": 27.2}
{"molecule": "O=C(CCN1CCCC1)Nc1ccc2c(NCc3ccccc3)c3ccccc3nc2c1", "growth / %": 72.5}
{"molecule": "O=C(Nc1ccc(Cl)cc1)c1cc(NCc2cc(O)ccc2O)ccc1O", "growth / %": 82.9}
{"molecule": "N#CC1=C(N)Oc2c(cnn2-c2ccc([N+](=O)[O-])cc2[N+](=O)[O-])C1c1ccccc1 (stereo not given)", "growth / %": 101}
{"molecule": "O=C1c2ccc3c4c(ccc(c24)C(=O)N1CCCNCc1ccccc1)C(=O)N(CCCNCc1ccccc1)C3=O", "growth / %": -26.5}
{"molecule": "COc1cc(CC(=O)c2ccc(O)c(OC)c2)ccc1O", "growth / %": 100}
{"molecule": "CN(C)CC(O)c1ccc(/C=C/c2ccc(Cl)cc2)cc1 (stereo not given)", "growth / %": 5.74}
{"molecule": "NCCCCCCNc1cc(-c2cccc(OC(F)(F)F)c2)nc2ccc(N3CCCC3)cc12", "growth / %": 5.01}
{"molecule": "CCCNC(=O)Oc1ccc(/C(=C(\\C)c2ccccc2)c2ccc(OCCCN(C)C)cc2)cc1", "growth / %": 77.7}
{"molecule": "OC(c1cccc(C(F)(F)F)c1)c1cnccc1NC1CCCCC1 (stereo not given)", "growth / %": 79.1}
